# Tested on: MDA-MB-157 (Breast Carcinoma)
# METHOD: combination Emax (second highest fraction inhibited in the dose matrix, 72 h); higher = more inhibition; extreme values may be limits of the assay
METRIC: combination Emax
Number only, please.

INSERT INTO results (compound, result_number) VALUES
  ('NC1(C(=O)N[C@@H](CCO)c2ccc(Cl)cc2)CCN(c2ncnc3[nH]ccc23)CC1 [Capivasertib] + COc1nnc2ccc(N3CCC(c4ccc(OCCN5CCN(C)C(=O)[C@H]5C)cc4)CC3)nn12 [AZD5153] (first compound max 10 µM, 7x7, partner max 1 µM)', 0.389);

# evaluate next
Please give the measured combination Emax for this compound: Cc1c2c(nn1C)CSCc1cc(n(C)n1)CSc1cc(c3ccccc3c1)OCCCc1c(C(=O)O)n(C)c3c-2c(Cl)ccc13 [AZD5991] + CS(=O)(=O)CCNCc1ccc(-c2ccc3ncnc(Nc4ccc(OCc5cccc(F)c5)c(Cl)c4)c3c2)o1 [Lapatinib] (first compound max 1 µM, 7x7, partner max 10 µM)
0.883

FYI, the data here is from the supplement of paper PMC11061612.
